- test-system: T1, extracellular domain (ECD) of recombinant human Sortilin with a C-terminal HIS tag (ECD-huSortilin-HIS) (human, UniProt Q99523 78-755)
- T1 construct: Bought (R&D Systems); also called human sortilin-ECD; not shown: C-terminal HIS tag
- T1 sequence: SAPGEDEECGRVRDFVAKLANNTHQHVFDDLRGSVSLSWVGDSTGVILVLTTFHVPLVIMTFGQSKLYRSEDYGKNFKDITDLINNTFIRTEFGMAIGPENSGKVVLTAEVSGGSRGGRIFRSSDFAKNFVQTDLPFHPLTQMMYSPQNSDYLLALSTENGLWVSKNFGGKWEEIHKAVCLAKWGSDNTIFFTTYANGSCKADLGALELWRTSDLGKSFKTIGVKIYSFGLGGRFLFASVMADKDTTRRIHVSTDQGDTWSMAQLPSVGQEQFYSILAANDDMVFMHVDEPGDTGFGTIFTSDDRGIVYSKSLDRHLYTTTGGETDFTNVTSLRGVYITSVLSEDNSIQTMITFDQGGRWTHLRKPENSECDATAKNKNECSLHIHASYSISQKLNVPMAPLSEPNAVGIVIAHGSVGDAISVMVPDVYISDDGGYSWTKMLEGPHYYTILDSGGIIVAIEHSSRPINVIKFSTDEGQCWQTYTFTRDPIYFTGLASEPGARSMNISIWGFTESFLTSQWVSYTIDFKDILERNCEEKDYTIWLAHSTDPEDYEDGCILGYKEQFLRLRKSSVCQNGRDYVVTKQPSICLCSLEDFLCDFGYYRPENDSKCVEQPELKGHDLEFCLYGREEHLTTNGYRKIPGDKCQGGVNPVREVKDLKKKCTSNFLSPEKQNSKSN
- assay-text: ELISA, ECD-huSortilin-HIS coated at 1 ug/mL, goat anti-human IgG-HRP, chemiluminescence
measured-parameter: EC50 (µg/mL)

- humanized 11M14 hu11M14VHv2b/hu11M14VLv3b (antibody, V domains shown, Human IgG; also called 11M14H2bL3b) VH: EVQLVESGGGLVQPGGSLRLSCAASGFTFNIYGMSWVRQAPGKGLEWVATISSGGIYTYYPDILKGRFTISRDNAKNSLYLQMNSGRAEDTAVYYCARHPGGAMDYWGQGTLVTVSS VL: DIQMTQSPSSLSASVGDRVTITCRVSENIYSNLAWYQQKPGKSPKLLVYAATNGADGVPSRFSGSGSGTDYTLTISSLQPEDFATYYCQHFWGTPPWTFGQGTKLEIK: 0.13

Reference source for all entries: patent US20230235048A1
